inhibition values, listed per item
Target: Protein deacetylase HDAC6 (Homo sapiens) (UniProt Q9UBN7)
Sequence (Q9UBN7 whole entry): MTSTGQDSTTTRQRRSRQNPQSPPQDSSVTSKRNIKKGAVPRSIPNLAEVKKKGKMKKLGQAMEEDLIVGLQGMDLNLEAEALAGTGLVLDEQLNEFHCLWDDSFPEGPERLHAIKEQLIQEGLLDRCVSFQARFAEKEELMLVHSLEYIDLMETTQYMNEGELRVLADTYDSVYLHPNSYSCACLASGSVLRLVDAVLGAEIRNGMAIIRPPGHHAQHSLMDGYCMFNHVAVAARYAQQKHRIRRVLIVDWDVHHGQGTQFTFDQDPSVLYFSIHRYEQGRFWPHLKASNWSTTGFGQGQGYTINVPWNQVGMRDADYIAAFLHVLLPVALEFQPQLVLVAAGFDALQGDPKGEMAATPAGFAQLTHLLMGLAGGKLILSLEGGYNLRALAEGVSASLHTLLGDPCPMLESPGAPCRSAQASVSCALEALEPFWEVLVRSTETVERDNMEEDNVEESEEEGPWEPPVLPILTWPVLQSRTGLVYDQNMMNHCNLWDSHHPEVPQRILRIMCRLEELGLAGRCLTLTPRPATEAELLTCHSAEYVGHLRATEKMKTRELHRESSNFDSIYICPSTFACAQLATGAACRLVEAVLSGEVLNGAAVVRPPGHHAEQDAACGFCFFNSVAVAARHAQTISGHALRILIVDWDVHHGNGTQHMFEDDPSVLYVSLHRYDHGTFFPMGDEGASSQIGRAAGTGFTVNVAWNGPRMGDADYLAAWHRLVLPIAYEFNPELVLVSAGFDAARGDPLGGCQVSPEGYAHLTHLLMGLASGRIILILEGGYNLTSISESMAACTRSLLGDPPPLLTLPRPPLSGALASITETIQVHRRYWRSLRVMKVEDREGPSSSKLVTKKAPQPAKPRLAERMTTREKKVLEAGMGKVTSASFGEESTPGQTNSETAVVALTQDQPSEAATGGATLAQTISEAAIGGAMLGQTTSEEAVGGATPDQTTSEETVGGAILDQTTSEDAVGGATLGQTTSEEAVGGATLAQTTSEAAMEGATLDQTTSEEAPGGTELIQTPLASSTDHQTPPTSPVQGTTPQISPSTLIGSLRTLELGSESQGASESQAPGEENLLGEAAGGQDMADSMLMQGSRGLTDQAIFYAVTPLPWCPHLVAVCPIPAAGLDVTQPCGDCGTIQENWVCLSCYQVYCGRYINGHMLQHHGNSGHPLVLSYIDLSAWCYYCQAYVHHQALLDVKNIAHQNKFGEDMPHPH
Details: at 10 µM
Among all 5,600 compounds or so, about 150 (2.7%) showed an effect of 50% or more. The sample holds strong results, similar compounds and a random draw of the others, so the mix is not that of the screen.
Please state the figure in %; there is no need to write the unit.

Examples with their reported inhibition follow.
COc1cc(Br)c(S(=O)(=O)Nc2ccc(C(F)(F)F)c(O[C@@H]3CCN(C)C3)c2)cc1OC | -1.99
O=C(Nc1ccc([N+](=O)[O-])cc1Cl)c1cc(Cl)ccc1O | 97
Nc1ccc(-c2nc3ccc(-c4nc5ccc(N)cc5[nH]4)cc3[nH]2)cc1 | 0.97
O=S(=O)(O)c1ccc2[nH]c(-c3ccccc3)nc2c1 | 94.7
CC(=O)OC1C[C@H]2C(C)(C)C(=O)C=C[C@]2(C)[C@H]2CC[C@@]3(C)[C@H](c4ccoc4)OC(=O)[C@H]4O[C@]43[C@]12C (some centres undefined) | -9.28
c1ccc(-c2ccc(CNc3nc(-c4ccccn4)nnc3-c3ccccc3)cc2)cc1 | 6.43
COC(=O)[C@H](Cc1cccc(C(=N)N)c1)[C@@H](C)NC(=O)c1ccc(-c2cc[n+]([O-])cc2)cc1 | -6.46
O[C@H]1CC[C@H](Nc2ncc3nc(Nc4c(F)cc(F)cc4F)n([C@H]4CCOC4)c3n2)CC1 | -4.44

Lab note: next compound to report on.
Hello, please tell me recorded inhibition for this one: Cc1cccc(C)c1NC(=O)/N=C1\CCCN1C -2.32
